Molecular target: PAK1 (human) (UniProt Q13153)
Sequence (Q13153 whole entry, looked up): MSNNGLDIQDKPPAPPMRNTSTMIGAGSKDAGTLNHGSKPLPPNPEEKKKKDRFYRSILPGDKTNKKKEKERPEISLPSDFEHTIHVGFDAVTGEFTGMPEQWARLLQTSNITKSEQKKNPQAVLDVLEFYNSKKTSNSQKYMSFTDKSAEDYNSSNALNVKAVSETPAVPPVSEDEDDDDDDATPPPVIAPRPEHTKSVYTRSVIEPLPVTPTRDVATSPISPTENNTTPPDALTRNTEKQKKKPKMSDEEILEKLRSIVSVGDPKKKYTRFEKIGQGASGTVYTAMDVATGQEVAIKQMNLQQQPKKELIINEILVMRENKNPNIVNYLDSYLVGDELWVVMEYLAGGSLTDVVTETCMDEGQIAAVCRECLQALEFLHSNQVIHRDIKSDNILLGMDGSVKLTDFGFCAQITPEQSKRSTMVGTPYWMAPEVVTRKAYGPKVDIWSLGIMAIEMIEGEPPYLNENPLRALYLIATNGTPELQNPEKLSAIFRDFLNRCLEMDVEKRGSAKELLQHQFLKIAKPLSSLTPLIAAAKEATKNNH
Test: KINOMEscan competition binding
Conditions: compound 10.0 µM
I'd appreciate it if you marked entries criterion met when kinase still bound, per cent of control is lower than 90% and criterion not met when it is not.

# count of solved cases: 10
Substance Smiles	Group Label
O=C(Nc1cccc(Nc2ncc(Br)c(NCCc3cnc[nH]3)n2)c1)N1CCCC1	criterion met
COc1cc(C(=O)N2CCC(N3CCN(C)CC3)CC2)ccc1Nc1ncc2c(n1)N(C)c1ccccc1C(=O)N2C	criterion not met
COc1ccc(N(C(=O)Oc2c(C)cccc2C)c2ccnc(Nc3ccc(N4CCN(C)CC4)cc3)n2)c(OC)c1	criterion met
CNC(=O)c1cc(Oc2ccc(NC(=O)Nc3ccc(Cl)c(C(F)(F)F)c3)cc2)ccn1	criterion met
COCC(=O)NC/C=C/c1ccc2ncnc(Nc3ccc(Oc4ccc(C)nc4)c(C)c3)c2c1	criterion met
C=CC(=O)Nc1ccc(CN(C(=O)Nc2c(Cl)c(OC)cc(OC)c2Cl)c2cc(Nc3ccc(N4CCN(C)CC4)cc3)ncn2)cc1	criterion not met
NC(=O)Nc1cc(-c2cccc(F)c2)sc1C(=O)N[C@@H]1CCCNC1	criterion met
COc1cc2ncn(-c3cc(OCc4ccccc4C(F)(F)F)c(C(N)=O)s3)c2cc1OC	criterion not met
CCN(CC)CCCCNc1ncc2cc(-c3cc(OC)cc(OC)c3)c(NC(=O)NC(C)(C)C)nc2n1	criterion not met
CCN(CC)CCCCNc1ncc2c(n1)N(C)C(=O)N(c1c(Cl)c(OC)cc(OC)c1Cl)C2	criterion not met

input: Threshold test, kinase still bound, per cent of control < 90%: C=CC(=O)Nc1cc(-n2c(=O)ccc3cnc4ccc(-c5cn[nH]c5)cc4c32)ccc1C
output: criterion not met

input: Threshold test, kinase still bound, per cent of control < 90%: COc1cc(N2CCN(C)CC2)ccc1Nc1ncc2c(n1)N(C)c1ccccc1C(=O)N2C
output: criterion not met

input: Threshold test, kinase still bound, per cent of control < 90%: CS(=O)(=O)N1CCN(Cc2cc3nc(-c4cccc5[nH]ncc45)nc(N4CCOCC4)c3s2)CC1
output: criterion not met

input: Threshold test, kinase still bound, per cent of control < 90%: CCN1CCN(C(=O)Cc2ccc(Nc3ncc(F)c(Nc4ccc(C(=O)Nc5ccccc5Cl)cc4)n3)cc2)CC1
output: criterion met

input: Threshold test, kinase still bound, per cent of control < 90%: O=C1NC(=O)/C(=C/c2ccc3nccc(-c4ccncc4)c3c2)S1
output: criterion met

input: Threshold test, kinase still bound, per cent of control < 90%: C[C@@H](Oc1cc(-c2cnn(C3CCNCC3)c2)cnc1N)c1c(Cl)ccc(F)c1Cl
output: criterion not met

input: Threshold test, kinase still bound, per cent of control < 90%: N#CCNC(=O)c1ccc(-c2ccnc(Nc3ccc(N4CCOCC4)cc3)n2)cc1
output: criterion not met

input: Threshold test, kinase still bound, per cent of control < 90%: O=c1cc(N2CCOCC2)oc2c(-c3cccc4c3sc3ccccc34)cccc12
output: criterion met
